# level at 0.5 h per entry
protocolDescription: Absorption on oral administration, plasma levels by RIA
Assay type: in vivo, OFA rats
setupConditions: OFA, rat, 10 mg/kg, 30 mins., read-out: Rat plasma levels following oral administration, 30 mins.
Starred links: 1 amine or outer side, 2 acyl side, 3 side chain; linkers in the order of their positions; H or OH if unused. Positions of bridges follow the written chain, without caps; N, C: chain ends. Non-standard residues stand in square brackets, D forms with d. Residues, ends and D or L forms follow the SMILES beside them. X2 = O=C([C@H](CS[*:3])N(C[C@@]1(O)OC[C@@H](O)[C@@H](O)[C@@H]1O)[*:1])[*:2]
# unit: ng/mL | format: bare number

{"compound": "CC[C@H](C)[C@@H]1NC(=O)[C@H](Cc2ccc(O)cc2)NC(=O)[C@@H](NC[C@@]2(O)OC[C@@H](O)[C@@H](O)[C@@H]2O)CSSC[C@@H](C(=O)N2CCC[C@H]2C(=O)N[C@@H](CC(C)C)C(=O)NCC(N)=O)NC(=O)[C@H](CC(N)=O)NC(=O)[C@H](CCC(N)=O)NC1=O [Example 44, [N-deoxy-fructosyl-Cys^1]-oxytocin] (H-[X2]YIQNCPLG-NH2; disulfide 1-6; C-terminus assumed)", "level at 0.5 h (ng/mL)": 6.98}

API: the following record is the query input.
Short answer for CC[C@H](C)[C@@H]1NC(=O)[C@H](Cc2ccc(O)cc2)NC(=O)[C@@H](N)CSSC[C@@H](C(=O)N2CCC[C@H]2C(=O)N[C@@H](CC(C)C)C(=O)NCC(N)=O)NC(=O)[C@H](CC(N)=O)NC(=O)[C@H](CCC(N)=O)NC1=O [oxytocin, reference compound] : level at 0.5 h was 3.6

* * *

protocolDescription: Elimination through bile and urine in anaesthetized cannulated rats after s.c. administration
setupConditions: male, rat, in vivo, sc, 10 microgram/kg, rats, 10 microgram/kg s.c.; read-out: Percentage eliminated through Urine
propertyMeasured: dose excreted (%)
Report as a plain number; the unit % is understood.

According to the records, this compound C[C@@H](O)[C@@H]1NC(=O)[C@H](CCCCN)NC(=O)[C@@H](Cc2c[nH]c3ccccc23)NC(=O)[C@H](Cc2ccccc2)NC(=O)[C@@H](NC(=O)[C@H](N)Cc2ccccc2)CSSC[C@@H](C(=O)N[C@H](CO)[C@@H](C)O)NC1=O [Octreotide, reference compound] displays dose excreted of 19

* * *

Entries annotated with measured level at 0.25 h
protocolDescription: Absorption on oral administration, plasma levels by RIA
Format: in vivo, OFA rats
setupConditions: OFA, rat, 10 mg/kg, 15 mins., read-out: Rat plasma levels following oral administration, 15 mins.
Starred links: 1 amine or outer side, 2 acyl side, 3 side chain; linkers in the order of their positions; H or OH if unused. Positions of bridges follow the written chain, without caps; N, C: chain ends. Non-standard residues stand in square brackets, D forms with d. Residues, ends and D or L forms follow the SMILES beside them. X2 = O=C([C@H](CS[*:3])N(C[C@@]1(O)OC[C@@H](O)[C@@H](O)[C@@H]1O)[*:1])[*:2]
// note: answer is a bare numeric in ng/mL

{"compound": "CC[C@H](C)[C@@H]1NC(=O)[C@H](Cc2ccc(O)cc2)NC(=O)[C@@H](NC[C@@]2(O)OC[C@@H](O)[C@@H](O)[C@@H]2O)CSSC[C@@H](C(=O)N2CCC[C@H]2C(=O)N[C@@H](CC(C)C)C(=O)NCC(N)=O)NC(=O)[C@H](CC(N)=O)NC(=O)[C@H](CCC(N)=O)NC1=O [Example 44, [N-deoxy-fructosyl-Cys^1]-oxytocin] (H-[X2]YIQNCPLG-NH2; disulfide 1-6; C-terminus assumed)", "measurementUnits": "ng/mL", "level at 0.25 h": 11.8}

Per the record, CC[C@H](C)[C@@H]1NC(=O)[C@H](Cc2ccc(O)cc2)NC(=O)[C@@H](N)CSSC[C@@H](C(=O)N2CCC[C@H]2C(=O)N[C@@H](CC(C)C)C(=O)NCC(N)=O)NC(=O)[C@H](CC(N)=O)NC(=O)[C@H](CCC(N)=O)NC1=O [oxytocin, reference compound] has level at 0.25 h of 7.53

* * *

protocolDescription: Elimination through bile and urine in anaesthetized cannulated rats after s.c. administration
setupConditions: male, rat, in vivo, sc, 10 microgram/kg, Percentage eliminated through Urine
Starred links: 1 amine or outer side, 2 acyl side, 3 side chain; linkers in the order of their positions; H or OH if unused. Positions of bridges follow the written chain, without caps; N, C: chain ends. Non-standard residues stand in square brackets, D forms with d. Residues, ends and D or L forms follow the SMILES beside them. X1 = O=C([C@@H](Cc1ccccc1)N(C[C@@]1(O)OC[C@@H](O)[C@@H](O[C@H]2O[C@H](CO)[C@@H](O)[C@H](O)[C@H]2O)[C@@H]1O)[*:1])[*:2]; Thr(ol) = C[C@@H](O)[C@H](N)CO
propertyMeasured: dose excreted (%)
Answer in %, number only, no unit symbol.

What the record says about C[C@@H](O)[C@@H]1NC(=O)[C@H](CCCCN)NC(=O)[C@@H](Cc2c[nH]c3ccccc23)NC(=O)[C@H](Cc2ccccc2)NC(=O)[C@@H](NC(=O)[C@@H](Cc2ccccc2)NC[C@@]2(O)OC[C@@H](O)[C@@H](O[C@H]3O[C@H](CO)[C@@H](O)[C@H](O)[C@H]3O)[C@@H]2O)CSSC[C@@H](C(=O)N[C@H](CO)[C@@H](C)O)NC1=O [Example 2] (H-[X1]CF[dW]KTC[Thr(ol)]; disulfide 2-7) : dose excreted is 36

* * *

protocolDescription: Elimination through bile and urine in anaesthetized cannulated rats after s.c. administration
setupConditions: male, rat, in vivo, sc, 10 microgram/kg, rats, 10 microgram/kg s.c.; read-out: Percentage eliminated through Bile
propertyMeasured: dose excreted (%)
# value in %; strip the unit string

Query C[C@@H](O)[C@@H]1NC(=O)[C@H](CCCCN)NC(=O)[C@@H](Cc2c[nH]c3ccccc23)NC(=O)[C@H](Cc2ccccc2)NC(=O)[C@@H](NC(=O)[C@H](N)Cc2ccccc2)CSSC[C@@H](C(=O)N[C@H](CO)[C@@H](C)O)NC1=O [Octreotide, reference compound] yields dose excreted of 22

* * *

protocolDescription: Absorption on oral administration, plasma levels by RIA
Format: in vivo, OFA rats
setupConditions: OFA, rat, 10 mg/kg, 60 mins., read-out: Rat plasma levels following oral administration, 60 mins.
Starred links: 1 amine or outer side, 2 acyl side, 3 side chain; linkers in the order of their positions; H or OH if unused. Positions of bridges follow the written chain, without caps; N, C: chain ends. Non-standard residues stand in square brackets, D forms with d. Residues, ends and D or L forms follow the SMILES beside them. X2 = O=C([C@H](CS[*:3])N(C[C@@]1(O)OC[C@@H](O)[C@@H](O)[C@@H]1O)[*:1])[*:2]
propertyMeasured: level at 1 h (ng/mL)
Entry rule: numbers only, all in ng/mL.

{"compound": "CC[C@H](C)[C@@H]1NC(=O)[C@H](Cc2ccc(O)cc2)NC(=O)[C@@H](NC[C@@]2(O)OC[C@@H](O)[C@@H](O)[C@@H]2O)CSSC[C@@H](C(=O)N2CCC[C@H]2C(=O)N[C@@H](CC(C)C)C(=O)NCC(N)=O)NC(=O)[C@H](CC(N)=O)NC(=O)[C@H](CCC(N)=O)NC1=O [Example 44, [N-deoxy-fructosyl-Cys^1]-oxytocin] (H-[X2]YIQNCPLG-NH2; disulfide 1-6; C-terminus assumed)", "level at 1 h, ng/mL": 3.98}

For CC[C@H](C)[C@@H]1NC(=O)[C@H](Cc2ccc(O)cc2)NC(=O)[C@@H](N)CSSC[C@@H](C(=O)N2CCC[C@H]2C(=O)N[C@@H](CC(C)C)C(=O)NCC(N)=O)NC(=O)[C@H](CC(N)=O)NC(=O)[C@H](CCC(N)=O)NC1=O [oxytocin, reference compound] the compound record lists level at 1 h as 2.55
